Data origin, for the record: the Immune Epitope Database (IEDB)

target.or.test.system: HLA-A*02:03
assay.text: IEDB peptide-MHC binding, purified MHC/competitive/radioactivity; filed as Kd, often an IC50 or EC50 that approximates it; bounds were set here for any values at or beyond the usual limits of such assays
cond: source organism: Vaccinia virus WR
Flag rule - Kd less than 400 nM flags yes (1); the remaining entries get no (0).

sequence_string=RASTTENAA label="no (0)"
sequence_string=ETIQKDINIT label="yes (1)"
sequence_string=FAISYCRAFI label="yes (1)"
sequence_string=YMVTDKTAYI label="yes (1)"
sequence_string=IAEYIAGLKI label="no (0)"
sequence_string=IIELPYVGDT label="no (0)"
sequence_string=KIEDLINQLV label="yes (1)"
sequence_string=LLPLTSLVI label="no (0)"
sequence_string=TAIRAGYSIV label="yes (1)"
sequence_string=VAMLLTHGA label="no (0)"
sequence_string=KLLSTSNVIT label="no (0)"
sequence_string=CTMERTNDL label="yes (1)"
sequence_string=LMDSIFVSTM label="yes (1)"
sequence_string=CVDIFTEGKI label="no (0)"
sequence_string=VVYHDDDNTT label="no (0)"
sequence_string=ITHTNITTLL label="yes (1)"
sequence_string=PLISILMIFI label="no (0)"
sequence_string=SMYTRLRQDT label="no (0)"
sequence_string=KINEMVDEL label="yes (1)"
sequence_string=FLDWIKDIM label="yes (1)"
sequence_string=GINNVQSLI label="yes (1)"
sequence_string=KLLNMRDLI label="yes (1)"
sequence_string=IAVFDSKLI label="no (0)"
sequence_string=GIIITVGMLI label="no (0)"
sequence_string=PASISSVLTI label="yes (1)"
sequence_string=EAAAATCALV label="yes (1)"
sequence_string=DIISSKQYPA label="no (0)"
sequence_string=ELIDVLKTRL label="yes (1)"
sequence_string=IMDKEQLLKI label="yes (1)"
sequence_string=SLTIKDSSNK label="no (0)"
sequence_string=KTVKNVDII label="no (0)"
